system: Candida kefyr ATCC 28838; assay: In vitro antifungal MIC, Candida kefyr ATCC 28838; assay type: cell-based; details: Kluyveromyces marxianus, ATCC28838; Candida kefyr ATCC 28838; 35°-37° C., 48 hours; read-out: MIC
Values of MIC strictly less than 2 µg/mL map to 1, and values of at least 2 µg/mL map to -1.

### Prompt Hello, is MIC of the following compound strictly smaller than 2 µg/mL? [O-][S+]1c2ccccc2SN1c1ccc2c(c1)OCO2 (stereo not shown)
### Response -1

### Prompt Check if MIC falls below 2 µg/mL for CCCN1Sc2ccccc2[S+]1[O-] (stereo not shown) [Example 3, 2-n-propyl-1,3,2-benzodithiazole-1-oxide] .
### Response 1

### Prompt Quick check: does [O-][S+]1c2ccccc2SN1CCN1CCCCC1 (stereo not shown) have MIC under 2 µg/mL?
### Response 1

### Prompt Lab note: MIC threshold 2 µg/mL. Does this compound come in strictly under it? [O-][S+]1c2ccccc2SN1c1ccccc1 (stereo not shown) [Example 30, 2-phenyl-1,3,2-benzodithiazole-1-oxide]
### Response -1

### Prompt Regarding COC(=O)CCCCCCCN1Sc2ccccc2[S+]1[O-] (stereo not shown) , kindly confirm whether its MIC is beneath 2 µg/mL.
### Response 1

### Prompt Decide: MIC of [O-][S+]1c2ccccc2SN1C1C2CC3CC(C2)CC1C3 (stereo not shown) strictly below 2 µg/mL?
### Response -1

### Prompt Is it true that MIC reported for CCCCCCCCCCN1Sc2ccccc2[S+]1[O-] (stereo not shown) [Example 8, 2-n-decyl-1,3,2-benzodithiazole-1-oxide] is less than 2 µg/mL?
### Response 1

### Prompt MIC under 2 µg/mL? Item: CCCCCCCCCN1Sc2ccccc2[S+]1[O-] (stereo not shown) [Example 7, 2-n-nonyl-1,3,2-benzodithiazole-1-oxide]
### Response 1

### Prompt Please determine if CN(C)c1ccc(CN2Sc3ccccc3[S+]2[O-])cc1 (stereo not shown) is below 2 µg/mL in terms of MIC.
### Response 1

### Prompt MIC strictly < 2 µg/mL for this compound? CCCCCCCN1Sc2ccccc2[S+]1[O-] (stereo not shown) [Example 5, 2-n-heptyl-1,3,2-benzodithiazole-1-oxide]
### Response 1

### Prompt Dear colleague, could you confirm whether MIC of [O-][S+]1c2ccccc2SN1CCc1ccccc1 (stereo not shown) falls below 2 µg/mL? Thanks.
### Response 1

### Prompt Identify whether the compound [O-][S+]1c2ccccc2SN1Cc1cccs1 (stereo not shown) records MIC below 2 µg/mL.
### Response 1

### Prompt Please check: MIC for C#CCN1Sc2ccccc2[S+]1[O-] (stereo not shown) , strictly under 2 µg/mL or not?
### Response 1

### Prompt Does this compound meet the criterion MIC < 2 µg/mL? [O-][S+]1c2ccccc2SN1C1CC1 (stereo not shown)
### Response 1

### Prompt Find out if reported MIC for CN1Sc2ccccc2[S+]1[O-] (stereo not shown) [Example 2, 2-methyl-1,3,2-benzodithiazole-1-oxide] is less than 2 µg/mL
### Response 1

### Prompt Please indicate whether the reported MIC of CC(C)(C)CCN1Sc2ccccc2[S+]1[O-] (stereo not shown) is strictly below 2 µg/mL.
### Response 1

====

Record form. Attribute: MIC. Fill in for each entry.
tested on: Candida kefyr ATCC 28838; assay: In vitro antifungal MIC, Candida kefyr ATCC 28838; assay type: cell-based; conditions: Kluyveromyces marxianus, ATCC28838; Candida kefyr ATCC 28838; 35°-37° C., 48 hours; read-out: MIC
# unit: µg/mL | format: bare number

### Prompt Respond only with MIC recorded for [O-][S+]1c2ccccc2SN1Cc1ccc(Cl)cc1Cl (stereo not drawn) [Example 36]
### Response 0.78

### Prompt Please list MIC recorded for the compound [O-][S+]1c2ccccc2SN1CCO (stereo not drawn) [Example 18]
### Response 0.78

### Prompt Report MIC, nothing else, for this compound: CC(C)(C)CC(C)(C)N1Sc2ccccc2[S+]1[O-] (stereo not drawn) [Example 16]
### Response 0.78

====

System: Candida tropicalis NRRL-Y-112
Assay: In vitro antifungal MIC, Candida tropicalis NRRL-Y-112
Assay type: cell-based
Settings: NRRLY112; Candida tropicalis NRRL-Y-112; 35°-37° C., 48 hours; read-out: MIC
Description: The in vitro antifungal activity of the compounds of the present invention against a variety of fungiwas determined as follow: Test medium was prepared by dissolving first 5 g of dextrose and then 6.7 g of Bacto Yeast Nitrogen Base® (commercially available from Difco Laboratories) in 100 mL of distilled water. […]
MEASURED_ATTRIBUTE: MIC (µg/mL)
Respond with the bare value in µg/mL.

### Prompt Identify measured MIC associated with [O-][S+]1c2ccccc2SN1CCO (stereo not shown) [Example 18]
### Response 12.5

### Prompt Fill in MIC for record CCCCCN1Sc2ccccc2[S+]1[O-] (stereo not shown) [Example 4, 2-n-pentyl-1,3,2-benzodithiazole-1-oxide]
### Response 50

### Prompt Report measured MIC; entry is [O-][S+]1c2ccccc2SN1C1CCCCCCC1 (stereo not shown) [Example 28]
### Response 3.12

### Prompt Find the measured MIC of CCCCCCCCCCN1Sc2ccccc2[S+]1[O-] (stereo not shown) [Example 8, 2-n-decyl-1,3,2-benzodithiazole-1-oxide] and report it.
### Response 3.12
